Recorded values, source patent US8710233B2.

Target: vanilloid receptor (VR1) (Homo sapiens, UniProt Q8NER1)
Construct: expressed in transfected cells; host or cells: CHO K1 cells (ECACC), stably transfected
Sequence (Q8NER1 whole entry): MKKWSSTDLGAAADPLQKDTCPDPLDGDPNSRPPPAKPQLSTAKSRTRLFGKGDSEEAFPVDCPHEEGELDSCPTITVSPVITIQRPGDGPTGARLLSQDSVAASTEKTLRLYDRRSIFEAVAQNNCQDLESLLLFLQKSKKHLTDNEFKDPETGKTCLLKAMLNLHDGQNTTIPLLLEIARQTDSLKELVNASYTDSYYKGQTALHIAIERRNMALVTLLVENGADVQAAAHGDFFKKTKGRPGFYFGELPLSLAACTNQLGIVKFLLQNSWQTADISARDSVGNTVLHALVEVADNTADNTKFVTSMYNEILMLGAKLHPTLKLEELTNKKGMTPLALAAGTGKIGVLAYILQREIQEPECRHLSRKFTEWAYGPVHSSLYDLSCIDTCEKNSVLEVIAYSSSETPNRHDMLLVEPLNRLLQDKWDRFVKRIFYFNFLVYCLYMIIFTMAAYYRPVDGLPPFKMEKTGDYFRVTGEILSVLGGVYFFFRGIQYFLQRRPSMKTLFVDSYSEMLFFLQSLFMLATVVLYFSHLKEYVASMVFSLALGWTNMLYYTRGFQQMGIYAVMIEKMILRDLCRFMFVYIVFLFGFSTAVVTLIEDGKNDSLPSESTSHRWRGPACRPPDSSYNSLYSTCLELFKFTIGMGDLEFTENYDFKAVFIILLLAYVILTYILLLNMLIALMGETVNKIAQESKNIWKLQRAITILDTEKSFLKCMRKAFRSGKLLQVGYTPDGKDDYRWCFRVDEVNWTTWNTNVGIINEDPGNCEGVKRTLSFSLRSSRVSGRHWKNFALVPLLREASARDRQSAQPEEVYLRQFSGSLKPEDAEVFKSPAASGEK
Test: FLIPR Ca2+ influx assay on CHO K1 cells transfected with the VR1 gene (pharmacological method II)
Assay type: cell-based
Details: table 4; capsaicin; read-out: Ki (human) Cap.
pKi: −log10 of the molar value.
List of pKi values.
property: pKi

>>> reportedresult("CC(C(=O)NCc1ccc(C(F)(F)Cl)nc1OC1CCCCC1)c1ccc(NS(C)(=O)=O)c(F)c1 (stereo not shown)")
9.05
>>> reportedresult("COCCCOc1nc(C(C)(C)C)ccc1CNC(=O)C(C)c1ccc(NS(C)(=O)=O)c(F)c1 (stereo not shown)")
8.25
>>> reportedresult("CC(C(=O)NCc1ccc(C(F)(F)Cl)nc1OCc1ccccc1)c1ccc(NS(C)(=O)=O)c(F)c1 (stereo not shown)")
9.05
>>> reportedresult("CC(C(=O)NCc1ccc(C(F)(F)Cl)nc1OCc1cccnc1)c1ccc(NS(C)(=O)=O)c(F)c1 (stereo not shown)")
7.84
>>> reportedresult("Cc1ccc(CNC(=O)C(C)c2ccc(NS(C)(=O)=O)c(F)c2)c(N2CCC(C)CC2)n1 (stereo not shown)")
7.14
>>> reportedresult("CCCCCOc1nc(C(F)(F)F)ccc1CNC(=O)C(C)c1ccc(NS(C)(=O)=O)c(F)c1 (stereo not shown)")
9.15
>>> reportedresult("CC(C(=O)NCc1ccc(C(F)(F)F)nc1N1CCC(Nc2ccccc2)CC1)c1ccc(NS(C)(=O)=O)c(F)c1 (stereo not shown)")
8.36
